Recorded values, source paper PMC6661505.

tested_system: human FGFR3c-Fc (human, UniProt P22607 23-375)
Sequence (P22607 23-375): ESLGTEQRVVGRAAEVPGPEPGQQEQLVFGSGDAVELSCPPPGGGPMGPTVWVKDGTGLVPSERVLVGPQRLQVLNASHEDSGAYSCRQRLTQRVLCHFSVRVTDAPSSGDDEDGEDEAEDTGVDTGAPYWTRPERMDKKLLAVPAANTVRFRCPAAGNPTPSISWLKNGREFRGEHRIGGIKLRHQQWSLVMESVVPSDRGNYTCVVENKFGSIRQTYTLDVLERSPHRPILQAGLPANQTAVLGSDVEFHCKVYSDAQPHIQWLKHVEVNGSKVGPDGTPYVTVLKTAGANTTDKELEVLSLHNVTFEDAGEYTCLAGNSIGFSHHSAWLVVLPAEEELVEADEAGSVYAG
assay_procedure: bead flow cytometry
test_readout: pKd
Numbers only, as −log10 of the molar value.

pKd recorded for this binder, GCCGAUGGUUUUGUGGCCGUUUGAGGUUCCUACGGC (structured_RNA, 2'-fluoro C and U; 3' inverted dT (not in string)) [iR3] , is 7.26
